System: LNCaP-Vancouver prostate cells
Assay: In vitro LNCaP Vancouver prostate cell proliferation assay in lipid reduced medium
Format: cell-based
Details: read-out: pIC50 LNCaP_Vancouver prostate cell (converted)
endpoint_label: IC50 (nM)

Below are worked cases with known answers.
>  <molecule>
Cc1cc(-c2cccc3[nH]ncc23)ccc1C1=NC2(CC2)C(=O)N1C[C@@H]1CCN(C(=O)C2CC2)C1

>  <subject_of_test>
LNCaP-Vancouver prostate cells

>  <unit_string>
nM

>  <IC50>
513

$$$$
>  <molecule>
COc1ccc2ccc(-c3ccc(C4=NC5(CC5)C(=O)N4CC4CN(C(=O)C5(O)CC5)C4)c(F)c3)cc2c1

>  <subject_of_test>
LNCaP-Vancouver prostate cells

>  <unit_string>
nM

>  <IC50>
2570

$$$$
>  <molecule>
N#Cc1cc2cc(-c3ccc(C4=NC5(CC5)C(=O)N4C[C@@H]4CCN(C(=O)C5CC5)C4)cc3F)ccc2o1

>  <subject_of_test>
LNCaP-Vancouver prostate cells

>  <unit_string>
nM

>  <IC50>
7240

$$$$
>  <molecule>
Cc1ccc(-c2ccc(-c3ccc(C4=NC5(CC5)C(=O)N4C[C@H]4CCN(C(=O)C5CC5)C4)cc3)cc2)cc1

>  <subject_of_test>
LNCaP-Vancouver prostate cells

>  <unit_string>
nM

>  <IC50>
447

$$$$
>  <molecule>
O=C(N1CCCC1)N1CC[C@@H](CN2C(=O)C3(CCOCC3)N=C2c2ccc(-c3ccc4cccnc4c3)cc2)C1

>  <subject_of_test>
LNCaP-Vancouver prostate cells

>  <unit_string>
nM

>  <IC50>
1230

$$$$
>  <molecule>
O=C(C1CC1)N1CC(CN2C(=O)C3(CC3)N=C2c2ccc(-c3cccc4[nH]ncc34)cc2)C1

>  <subject_of_test>
LNCaP-Vancouver prostate cells

>  <unit_string>
nM

>  <IC50>
1910

$$$$
>  <molecule>
O=C(C1CC1)N1CC(CN2C(=O)C3(CC3)N=C2c2ccc(-c3ccc4cc(F)ccc4c3)cc2F)C1

>  <subject_of_test>
LNCaP-Vancouver prostate cells

>  <unit_string>
nM

>  <IC50>
138

$$$$
>  <molecule>
N#Cc1cc2cc(-c3ccc(C4=NC5(CC5)C(=O)N4C[C@@H]4CCN(C(=O)C5CC5)C4)c(F)c3)ccc2o1

>  <subject_of_test>
LNCaP-Vancouver prostate cells

>  <unit_string>
nM

>  <IC50>
1380

$$$$
>  <molecule>
O=C(C1CC1)N1CC[C@@H](CN2C(=O)C3(CC3)N=C2c2ccc(-c3ccc4sccc4c3)cn2)C1

>  <subject_of_test>
LNCaP-Vancouver prostate cells

>  <unit_string>
nM

>  <IC50>
1620

$$$$
>  <molecule>
COC(=O)N1CC2(C1)N=C(c1ccc(-c3ccc4cccnc4c3)cc1)N(C[C@@H]1CCN(C(=O)C(C)O)C1)C2=O (stereo partly drawn)

>  <subject_of_test>
LNCaP-Vancouver prostate cells

>  <unit_string>
nM

>  <IC50>
8710

$$$$

A. O=C([C@H]1CCCO1)N1CC(CN2C(=O)C3(CCOCC3)N=C2c2ccc(-c3ccc4occc4c3)cc2)C1
B. Cn1cnc2cc(-c3ccc(C4=NC5(CC5)C(=O)N4CC4CN(C(=O)C5CC5)C4)c(F)c3)ccc21
[ask] # argmax over IC50 for candidates A and B Give the label of your selection.
[reply] A
(A: 6920 nM, B: 282 nM)

I. O=C(C1CC1)N1CC[C@@H](CN2C(=O)C3(CC3)N=C2c2ccc(-c3cccc4ncccc34)cc2)C1
II. Cn1ccc(-c2ccc(-c3ccc(C4=NC5(CC5)C(=O)N4CC4CN(C(=O)C5CC5)C4)cc3)cc2)n1
[ask] Identify the entry with the smaller IC50: I or II . Answer by stating the label of the chosen item.
[reply] I

Measured values drawn from patent US10077261B2 for this set.
